Measured values drawn from the supplement of paper PMC10567573 for this set.

B1: ATL3 (parent)
chain: HFKKTKKMGGKDFSFRYQQELEEE

Variants of: B1
TEST_SUMMARY: protein stability index of a GFP-peptide fusion (GPS, HEK-293T) (PSI 1-6); higher = more stable;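 note: lentivirally expressed fusions sorted by FACS into six bins by GFP to DsRed ratio, PSI derived from sequencing read proportions per bin multiplied by bin number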
APPLIED_CONDITIONS: c terminus: a fixed tail appended
Task for the reader: assign each of the following variants its reported protein stability index.

// for each variant in input: emit protein stability index
1. Y17M
2. S14E
3. Q19V
4. Y17L
5. L21E
6. Y17G
7. K11I
8. E24H

Found:
1. 4.21
2. 1.53
3. 2.92
4. 2.1
5. 3.19
6. 4.68
7. 2.27
8. 3.13

// for each variant in input: emit protein stability index
1. M8A
2. E23I
3. D12A

Found:
2.39
1.97
1.88
